test system: Escherichia coli TOP10; assay: shrunken log2 fold change of peptide-encoding DNA abundance (4.5 h post-induction vs induction); higher = less antimicrobial activity (less host growth inhibition); conditions: time post-induction: 4.5 h; library: site-saturation at positions 5, 18, 19, 20;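 note: peptides expressed intracellularly from a pBAD plasmid library in pooled LB shake-flask culture, induced with 0.3% L-arabinose, DNA abundance read by NGS, three biological replicates, DESeq2 with apeglm shrinkage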
Would you mind labelling by shrunken log2 fold change? At or over 0.2 is fulfilled, under is not fulfilled.

Observe how each entry below is paired with its result.
| primary_sequence | group_label |
| --- | --- |
| RRIRPRPPRLPRPRPRPGRRPRP | not fulfilled |
| RRIRFRPPRLPRPRPRPRCHPRP | not fulfilled |
| RRIRARPPRLPRPRPRPVVFPRP | fulfilled |
| RRIRPRPPRLPRPRPRPWEGPRP | not fulfilled |
| RRIRGRPPRLPRPRPRPNYNPRP | not fulfilled |
| RRIRFRPPRLPRPRPRPATHPRP | not fulfilled |
| RRIRDRPPRLPRPRPRPCVTPRP | not fulfilled |
| RRIRCRPPRLPRPRPRPRWLPRP | fulfilled |

Next:
I'd appreciate it if you could say whether `RRIRVRPPRLPRPRPRPARQPRP` has shrunken log2 fold change at least equal to 0.2. fulfilled
